- target_of_assay: Recombinant ROCK1 (amino acids 1-477) (Homo sapiens)
- Construct: Recombinant ROCK1 (amino acids 1-477); by word order, ROCK1 from Carna Biosciences
- test_details: ROCK inhibition assay, LANCE Ultra TR-FRET kinase assay (ROCK1)
- details: 1 μM ATP, 50 nM ULight-CREBtide substrate
pIC50: −log10 of the molar value.
experimental_endpoint: pIC50

Worked set:
>>> value("O=C(NCC1CCN(CC(F)F)CC1)c1cccc(Cn2ccc3cc(N4CCOCC4)ccc3c2=O)c1 [Compound 219]")
"6.30 to 7.00"
>>> value("NS(=O)(=O)c1ccc(NC(=O)c2cc(F)cc(Cn3ccc4cc(-c5c[nH]nc5C(F)(F)F)ccc4c3=O)c2)cc1 [Compound 127]")
"6.30 to 7.00"

Report pIC50 for COc1cccc(Cn2cnc3cc(-c4ccnc(N)c4)ccc3c2=O)c1 [Compound 364] please.
7.00 to 7.96

Then this compound: CNC(=O)c1cccc([C@@H](C)n2cnc3cc(-c4cn[nH]c4Cl)ccc3c2=O)c1 [Compound 466]
7.00 to 7.96

* * *

IC50 listing for selected molecules.
- target_of_assay: Recombinant ROCK1 (amino acids 1-477) (Homo sapiens, UniProt Q13464)
- Construct: Recombinant ROCK1 (amino acids 1-477); by word order, ROCK1 from Carna Biosciences
- Sequence (Q13464 1-477): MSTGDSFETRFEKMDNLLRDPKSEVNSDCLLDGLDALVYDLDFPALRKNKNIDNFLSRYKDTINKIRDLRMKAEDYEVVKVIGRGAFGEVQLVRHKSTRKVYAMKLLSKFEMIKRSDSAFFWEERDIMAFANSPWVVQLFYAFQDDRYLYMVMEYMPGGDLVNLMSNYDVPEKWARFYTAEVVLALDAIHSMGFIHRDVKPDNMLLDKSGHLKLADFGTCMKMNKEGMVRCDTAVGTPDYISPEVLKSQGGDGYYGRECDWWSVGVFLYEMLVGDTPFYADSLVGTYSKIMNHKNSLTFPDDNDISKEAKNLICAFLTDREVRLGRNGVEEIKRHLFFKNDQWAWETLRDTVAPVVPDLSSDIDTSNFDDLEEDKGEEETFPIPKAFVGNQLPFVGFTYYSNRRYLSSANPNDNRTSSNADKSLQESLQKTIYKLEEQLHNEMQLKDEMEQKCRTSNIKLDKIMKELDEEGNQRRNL
- test_details: ROCK inhibition assay, LANCE Ultra TR-FRET kinase assay (ROCK1)
- details: 1 μM ATP, 50 nM ULight-CREBtide substrate

>>> value("O=C(NCC1CCN(C2COC2)CC1)c1cc(F)cc(Cn2ccc3cc(N4CCOCC4)ccc3c2=O)c1")
"101 to 500 nM"
>>> value("CNC(=O)c1cccc(Cn2cc(CC(C)O)c3cc(-c4cn[nH]c4C(F)F)ccc3c2=O)c1 (stereo not shown)")
"11 to 100 nM"
>>> value("CNC(=O)c1cccc(Cn2ccc3cc(-c4ccnc(N)c4)ccc3c2=O)c1")
"11 to 100 nM"
>>> value("Cc1nocc1-c1ccc2c(=O)n(Cc3cccc(C(=O)Nc4ccc5c(c4)CCN(C4CC4)C5)c3)ccc2c1")
"< 10 nM"
>>> value("CNC(=O)c1cccc(Cn2cc(CCN(C)C)c3cc(-c4ccnn4C)ccc3c2=O)c1")
"11 to 100 nM"

Entry CN1CCC(CNC(=O)c2cc(F)cc(Cn3ccc4cc(-c5c[nH]nc5C(F)(F)F)ncc4c3=O)c2)CC1 : reported IC50 = ?
< 10 nM

Please answer likewise for Cn1nccc1-c1ccc2c(=O)n(Cc3cccc(C(=O)NC4CCN(CC(F)F)CC4)c3)ccc2c1
11 to 100 nM

Entry Cc1nocc1-c1ccc2c(=O)n(Cc3cccc(C(=O)N[C@H]4CC[C@@H](O)CC4)c3)ccc2c1 please
101 to 500 nM

Here is the next molecule: COc1cccc(Cn2ccc3cc(-c4ccncc4)ccc3c2=O)c1
< 10 nM

What do you have for CC(c1cccc(O)c1)n1ccc2cc(-c3c[nH]nc3C(F)(F)F)ccc2c1=O (stereo not shown) ?
101 to 500 nM

* * *

- target_of_assay: Recombinant ROCK2 (amino acids 5-554) (Homo sapiens, UniProt O75116)
- Construct: ROCK2 (amino acids 5-554); by word order, ROCK2 from SignalChem
- Sequence (O75116 5-554): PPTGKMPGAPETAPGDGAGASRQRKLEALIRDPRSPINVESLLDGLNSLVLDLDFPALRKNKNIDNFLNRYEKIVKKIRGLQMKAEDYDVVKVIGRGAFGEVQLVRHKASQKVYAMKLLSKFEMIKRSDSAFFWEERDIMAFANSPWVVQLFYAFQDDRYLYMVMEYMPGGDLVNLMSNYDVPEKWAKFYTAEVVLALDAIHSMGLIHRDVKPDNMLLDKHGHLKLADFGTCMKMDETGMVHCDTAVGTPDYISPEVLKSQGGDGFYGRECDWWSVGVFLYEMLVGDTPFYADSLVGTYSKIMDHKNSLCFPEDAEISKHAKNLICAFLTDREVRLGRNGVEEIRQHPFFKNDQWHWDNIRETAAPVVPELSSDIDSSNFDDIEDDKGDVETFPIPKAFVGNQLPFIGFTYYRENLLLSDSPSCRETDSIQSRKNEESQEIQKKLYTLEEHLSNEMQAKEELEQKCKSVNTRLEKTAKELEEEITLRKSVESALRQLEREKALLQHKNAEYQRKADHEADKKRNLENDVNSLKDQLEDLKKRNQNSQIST
- test_details: ROCK inhibition assay, LANCE Ultra TR-FRET kinase assay (ROCK2)
- details: 4 μM ATP, 50 nM ULight-CREBtide substrate
experimental_endpoint: IC50

>>> value("O=C(NC1CCN(CC(F)F)CC1)c1cccc(Cn2ccc3cc(-c4c[nH]nc4C(F)(F)F)ccc3c2=O)c1")
"< 10 nM"
>>> value("Cc1nocc1-c1ccc2c(=O)n(Cc3cccc(C(=O)NCC4CCN(C5CC5)CC4)c3)ccc2c1")
"10 to 100 nM"
>>> value("CNC(=O)c1cccc(Cn2cnc3cc(-c4cnnn4C)ccc3c2=O)c1")
"> 500 nM"

May I ask what IC50 has been recorded for CC(C)C(=O)Nc1cccc(Cn2ccc3cc(-c4c[nH]nc4C(F)(F)F)ccc3c2=O)c1 ?
10 to 100 nM
